- System: KM12 colon
- Assay Name: NCI tumour cell line growth inhibition, 48 h
Assay Metric: TGI

Which TGI is reported with KM12 colon for this entry: Cc1ccc(C)c(COCCOCn2c(=O)[nH]c(=O)c3cc(Br)ccc32)c1 ?
> 100 µM

Same again, this time with COCn1c(C)c(C)c2c(=O)oc(C)nc21
> 100 µM

Entry COC1=CC(=O)NCCN1 please
> 100 µM

One more molecule: CC(=O)c1ccccc1NS(=O)(=O)c1ccc2nc(C)n(NS(=O)(=O)c3ccccc3C(C)=O)c(=O)c2c1
> 100 µM

What would you report for CCOP(=O)(CC(=O)C1=C(O)C(CCCCNC(=O)OC(C)(C)C)N(Cc2ccccc2)C1=O)OCC (stereo not given) ?
> 100 µM

Can you check Cc1cccc(C(=O)O)c1CC1NCCC2c3ccccc3NC12 (stereo not given) next?
> 100 µM

Queued: CC#CCCCC1(C)CCCNC1=S (stereo not given)
> 10 µM

Entry to check: COc1cc(Nc2nc3ccccc3nc2C(C)C)cc(OC)c1OC
> 100 µM

Check COc1ccc(-c2cc(-c3ccccc3)nc3c2CC(=O)Nc2ccccc2-3)cc1OC too.
> 100 µM

Same for CC(=O)OC1[C@H](n2ccnc2)C[C@H]2[C@@H]3CC=C4CC(N5CCCC5)CC[C@]4(C)[C@H]3CC[C@]12C (stereo not given in full)
> 100 µM

Thanks! And COc1ccc(-c2nc(-c3nc4ccc(C(F)(F)F)cc4[nH]3)c3ccccn23)cc1 ?
> 100 µM

Try the molecule CCCCN1C(=O)CS/C1=N/Nc1nc2c([nH]1)c(=O)n(C)c(=O)n2C
> 100 µM

// same read-out, input: Clc1cccc2c1OCC1C(c3ccccc3)=NN(c3ccccc3)C21 (stereo not given)
> 100 µM

Please give the result for COc1cc2ccc(CC(N)=O)cc2cc1OC too.
> 100 µM

And CC1(C)CC(=O)c2c(ccc(C(=O)C[C@@H](N)CO)c2N)O1 ?
> 91.7 µM

Same lookup for CCOC(=O)c1nc2cc(C(F)(F)F)ccc2[n+]([O-])c1C , please.
> 100 µM

S=C(c1c[nH]c2ccccc12)N1CCCCC1 , same question.
> 100 µM

Try Brc1ccc(-c2cc(-c3ccc4c(c3)OCO4)c(-c3cccs3)n2Cc2ccccc2)cc1 next.
> 100 µM

Cool, now CNC(=O)c1cc2c(Oc3ccc(NC(=S)NC(=O)Cc4ccccc4)cc3F)ccnc2cc1OC
> 100 µM

And then COc1ccc(/C=C(/c2ccccc2)c2c(C)cc(C)c(/C(=C\c3ccc(OC)cc3)c3ccccc3)c2N=Nc2cc(C)cc(C)c2)cc1 , what is it?
> 71.9 µM
